molecular target: Microtubule-associated protein tau (Homo sapiens) (UniProt P10636); assay: Confirmation Concentration-Response Assay for Inhibitors of Tau Fibril Formation, Fluorescence Polarization; details: recombinant tau K18 P301L (four-repeat tau fragment) heparin fibrillization, Alexa594 FP; series mostly up to 57.1 µM
Sequence (P10636 561-689 P618L limits assumed): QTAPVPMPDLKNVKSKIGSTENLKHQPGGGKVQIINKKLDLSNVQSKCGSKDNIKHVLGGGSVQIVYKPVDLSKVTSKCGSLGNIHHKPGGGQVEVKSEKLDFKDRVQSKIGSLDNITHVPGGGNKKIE
Results filed as inconclusive are left out. Activity calls are given as the source filed them. The call rests on the fitted dose curve; in most records, active means well fitted curve in the direction sought with a large enough effect; inconclusive means small, poorly fitted or top-dose-only effect, or another doubt; inactive means no such curve, though single readings can be large or run the other way.
Labels: active, inactive

Compound	Cat
Cc1ccc(NCc2cc3cc4c(cc3n(CC(=O)Nc3ccc(C)cc3)c2=O)OCCO4)cc1	inactive
CC1CCc2c(sc(NC(=O)Cc3ccccc3)c2C(=O)Nc2ccc(Cl)cc2)C1 (stereo unspecified)	inactive
COc1cccc(/C=C2/SC(=S)N(CC(=O)Nc3nnc(C)s3)C2=O)c1	inactive
Cc1cc2c(N)cccc2nn1	active
NCCc1ccc(O)c(O)c1	inactive
CCOC(=O)c1nn(-c2ccc(C)c(C)c2)c(=O)c2c(N)scc12	inactive
